Test system: 786-0 complex spheroids with HUVEC/MSC, growth % test/control
test-summary: Anticancer human tumor 786-0 cell line growth inhibition [AhR]; active = viability on the fitted dose curve at most 10% of control; inactive = the rest;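 also: compound exposure lasted seven days before the read-out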
condition-description: second compound 3.16 µM; first compound 0.0949 µM
Hi there, use one of these labels in your reply, thanks! active, inactive

Worked examples follow.
compound: CCc1c2c(nc3ccc(O)cc13)-c1cc3c(c(=O)n1C2)COC(=O)[C@]3(O)CC + Cc1ccccc1N=Nc1ccc(NC(=O)c2ccnn2C)c(C)c1
assigned-category: active
--
compound: Nc1ncn(C2CC(O)C(CO)S2)c(=O)n1 (stereo unspecified) + Cc1cncc(-c2nc(NCCc3c[nH]c4ccccc34)c3ncn(C(C)C)c3n2)c1
assigned-category: inactive
--
compound: CCN(c1cc(-c2ccc(CN3CCOCC3)cc2)cc(C(=O)NCc2c(C)cc(C)[nH]c2=O)c1C)C1CCOCC1 + CC(CO)NC(=O)c1cc(-c2ccc(Cl)cc2)nn(-c2cnn(C)c2)c1=O
assigned-category: inactive
--
compound: O=C(C=Cn1cnc(-c2cc(C(F)(F)F)cc(C(F)(F)F)c2)n1)NNc1cnccn1 + Cc1cncc(-c2nc(NCCc3c[nH]c4ccccc34)c3ncn(C(C)C)c3n2)c1
assigned-category: inactive
--
compound: CCN(c1cc(-c2ccc(CN3CCOCC3)cc2)cc(C(=O)NCc2c(C)cc(C)[nH]c2=O)c1C)C1CCOCC1 + Cc1cncc(-c2nc(NCCc3c[nH]c4ccccc34)c3ncn(C(C)C)c3n2)c1
assigned-category: inactive

Now consider the entry below.
(Q) For this compound, state the assay outcome: O=C(C=Cn1cnc(-c2cc(C(F)(F)F)cc(C(F)(F)F)c2)n1)NNc1cnccn1 + CC(CO)NC(=O)c1cc(-c2ccc(Cl)cc2)nn(-c2cnn(C)c2)c1=O
(A) inactive

---

Reported viability, T/C values are given for each entry in this list.
Tested on: 786-0 complex spheroids with HUVEC/MSC, growth % test/control
test-summary: Anticancer human tumor 786-0 cell line growth inhibition [AhR];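 also: compound exposure lasted seven days before the read-out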
condition-description: second compound 0.316 µM; first compound 0.03 µM; stronger effect = lower value
I only need the number, in %, no unit after it.

compound: CCc1c2c(nc3ccc(O)cc13)-c1cc3c(c(=O)n1C2)COC(=O)[C@]3(O)CC + Cc1cncc(-c2nc(NCCc3c[nH]c4ccccc34)c3ncn(C(C)C)c3n2)c1
measured-on: 786-0 complex spheroids with HUVEC/MSC, growth % test/control
assay-metric: viability, T/C
value-observed: 6.67

(Q) Read off the recorded viability, T/C for CCc1c2c(nc3ccc(O)cc13)-c1cc3c(c(=O)n1C2)COC(=O)[C@]3(O)CC + CC(CO)NC(=O)c1cc(-c2ccc(Cl)cc2)nn(-c2cnn(C)c2)c1=O
(A) 5.34

(Q) Read off the recorded viability, T/C for CCc1c2c(nc3ccc(O)cc13)-c1cc3c(c(=O)n1C2)COC(=O)[C@]3(O)CC + Cc1ccccc1N=Nc1ccc(NC(=O)c2ccnn2C)c(C)c1
(A) 9.77

---

Reported viability, T/C values are given for each entry in this list.
System: 786-0 complex spheroids with HUVEC/MSC, growth % test/control
test-summary: Anticancer human tumor 786-0 cell line growth inhibition [AhR];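 also: compound exposure lasted seven days before the read-out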
condition-description: second compound 0.316 µM; first compound 3.16 µM; stronger effect = lower value

(Q) Report viability, T/C on 786-0 complex spheroids with HUVEC/MSC, growth % test/control for this entry: CC(C)c1c(-c2ccccc2)nc2c(C#N)c[nH]n2c1=O + Cc1ccccc1N=Nc1ccc(NC(=O)c2ccnn2C)c(C)c1
(A) 92.6%

(Q) Report viability, T/C on 786-0 complex spheroids with HUVEC/MSC, growth % test/control for this entry: COc1cc(C2c3cc4c(cc3C(OC3OC5COC(C)OC5C(O)C3O)C3COC(=O)C23)OCO4)cc(OC)c1O (stereo not drawn) + CC(CO)NC(=O)c1cc(-c2ccc(Cl)cc2)nn(-c2cnn(C)c2)c1=O
(A) 13.1%

(Q) Report viability, T/C on 786-0 complex spheroids with HUVEC/MSC, growth % test/control for this entry: CC1(C)CCC(CN2CCN(c3ccc(C(=O)NS(=O)(=O)c4ccc(NCC5CCOCC5)c([N+](=O)[O-])c4)c(Oc4cnc5[nH]ccc5c4)c3)CC2)=C(c2ccc(Cl)cc2)C1 + Cc1cncc(-c2nc(NCCc3c[nH]c4ccccc34)c3ncn(C(C)C)c3n2)c1
(A) 102%
